system: 22_k-ras (DNA, G4) AGGGCGGTGTGGGAATAGGGAA; test: fluorescent indicator displacement; settings: K+ 40 mM (30 mM KCl + potassium phosphate); 10 mM potassium phosphate pH 7, 25 °C; 0.5 µM thiazole orange displaced, 0.25 µM DNA
property name: DC50 (nM)

C(=N\[C@H](COCc1ccc(-c2ccccn2)nc1)c1ccccc1)/c1ccc(OCc2cn(Cc3ccccc3)nn2)cn1.C(=N\[C@H](COCc1ccc(-c2ccccn2)nc1)c1ccccc1)/c1ccc(OCc2cn(Cc3ccccc3)nn2)cn1.C(=N\[C@H](COCc1ccc(-c2ccccn2)nc1)c1ccccc1)/c1ccc(OCc2cn(Cc3ccccc3)nn2)cn1.[Fe+2].[Fe+2]: 270

(I) C(=N\[C@@H](COCc1ccc(-c2ccccn2)nc1)c1ccccc1)/c1ccccn1.C(=N\[C@@H](COCc1ccc(-c2ccccn2)nc1)c1ccccc1)/c1ccccn1.C(=N\[C@@H](COCc1ccc(-c2ccccn2)nc1)c1ccccc1)/c1ccccn1.[Fe+2].[Fe+2]
(II) C(=N\[C@H](COCc1ccc(-c2ccccn2)nc1)c1ccccc1)/c1ccccn1.C(=N\[C@H](COCc1ccc(-c2ccccn2)nc1)c1ccccc1)/c1ccccn1.C(=N\[C@H](COCc1ccc(-c2ccccn2)nc1)c1ccccc1)/c1ccccn1.[Fe+2].[Fe+2]
Request: // max by DC50 over [ I , II ] Kindly give the label for the entry you pick.
Response: I
(I: 650 nM, II: 420 nM)
